molecular target: Sodium channel protein type 3 subunit alpha (Homo sapiens); assay: Modulation of human Nav1.3 in open-inactivated state assessed as inhibition of inward current after 4 mins by whole-cell electrophysiology
Sequence (Q9NY46 whole entry): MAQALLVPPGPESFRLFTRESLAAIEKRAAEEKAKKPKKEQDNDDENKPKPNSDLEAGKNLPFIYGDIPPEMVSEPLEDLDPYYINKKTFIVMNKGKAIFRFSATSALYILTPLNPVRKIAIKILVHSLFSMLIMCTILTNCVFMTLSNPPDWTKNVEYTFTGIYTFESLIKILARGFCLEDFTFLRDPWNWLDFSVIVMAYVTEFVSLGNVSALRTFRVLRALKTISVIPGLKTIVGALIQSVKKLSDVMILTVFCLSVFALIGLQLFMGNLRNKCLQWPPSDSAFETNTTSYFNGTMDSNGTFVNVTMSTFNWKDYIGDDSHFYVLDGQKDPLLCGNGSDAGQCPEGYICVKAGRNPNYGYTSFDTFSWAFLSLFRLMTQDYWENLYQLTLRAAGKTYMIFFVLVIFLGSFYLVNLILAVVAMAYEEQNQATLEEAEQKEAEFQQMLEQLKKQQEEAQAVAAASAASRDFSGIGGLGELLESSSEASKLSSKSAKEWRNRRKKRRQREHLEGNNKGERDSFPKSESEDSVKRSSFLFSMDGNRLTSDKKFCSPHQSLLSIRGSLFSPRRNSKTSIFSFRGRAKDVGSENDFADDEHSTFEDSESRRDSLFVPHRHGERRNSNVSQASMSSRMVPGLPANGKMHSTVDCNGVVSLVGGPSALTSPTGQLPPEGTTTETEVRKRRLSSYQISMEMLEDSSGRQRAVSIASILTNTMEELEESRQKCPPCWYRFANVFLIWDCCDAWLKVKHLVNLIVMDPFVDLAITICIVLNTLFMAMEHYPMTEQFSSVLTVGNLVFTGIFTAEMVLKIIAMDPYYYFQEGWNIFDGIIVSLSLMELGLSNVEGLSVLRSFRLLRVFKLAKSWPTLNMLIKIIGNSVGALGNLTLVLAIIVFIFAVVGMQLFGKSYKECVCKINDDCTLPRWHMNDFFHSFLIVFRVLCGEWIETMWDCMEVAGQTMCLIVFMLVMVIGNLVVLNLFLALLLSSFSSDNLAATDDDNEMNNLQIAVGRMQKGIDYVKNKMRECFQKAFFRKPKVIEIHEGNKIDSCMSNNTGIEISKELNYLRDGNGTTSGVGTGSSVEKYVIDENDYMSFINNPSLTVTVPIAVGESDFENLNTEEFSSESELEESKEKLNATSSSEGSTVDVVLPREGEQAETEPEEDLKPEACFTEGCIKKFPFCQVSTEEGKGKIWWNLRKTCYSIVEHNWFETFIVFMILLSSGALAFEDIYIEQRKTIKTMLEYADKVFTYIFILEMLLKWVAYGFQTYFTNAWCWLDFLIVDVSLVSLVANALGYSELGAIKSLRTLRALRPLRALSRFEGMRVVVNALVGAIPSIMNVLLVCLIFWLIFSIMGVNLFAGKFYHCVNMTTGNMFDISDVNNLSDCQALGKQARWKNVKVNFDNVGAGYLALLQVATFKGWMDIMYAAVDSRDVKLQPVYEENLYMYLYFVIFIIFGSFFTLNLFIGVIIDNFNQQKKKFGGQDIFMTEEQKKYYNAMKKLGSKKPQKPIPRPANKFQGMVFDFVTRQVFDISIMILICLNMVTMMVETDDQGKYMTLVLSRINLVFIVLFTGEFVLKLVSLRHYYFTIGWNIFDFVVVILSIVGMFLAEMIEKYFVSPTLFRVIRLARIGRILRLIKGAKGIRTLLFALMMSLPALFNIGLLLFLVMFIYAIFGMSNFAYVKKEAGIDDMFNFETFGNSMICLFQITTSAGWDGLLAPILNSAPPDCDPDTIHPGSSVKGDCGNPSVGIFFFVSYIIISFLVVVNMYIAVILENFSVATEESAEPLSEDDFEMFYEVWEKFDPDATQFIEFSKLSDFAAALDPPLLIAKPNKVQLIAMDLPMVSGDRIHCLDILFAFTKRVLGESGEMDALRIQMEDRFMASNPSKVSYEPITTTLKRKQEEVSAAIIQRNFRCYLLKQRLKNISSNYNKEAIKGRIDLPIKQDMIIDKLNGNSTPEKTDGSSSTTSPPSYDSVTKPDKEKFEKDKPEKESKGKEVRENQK
assay.readout: pIC50
When answering, recall that pIC50 equals minus log10 of the concentration in mol/L, and write that number alone.

Which pIC50 value belongs to CC(C)(C)OC(=O)n1cc(-c2cccc(NC(=O)c3ccc[nH]3)c2)nc1N ? 4.60

Which pIC50 value belongs to CCN(CC)CC(=O)Nc1c(C)cccc1C ? 4.98

Which pIC50 value belongs to CC(C)(C)OC(=O)n1cc(-c2ccc(NC(=O)c3ccco3)cc2)nc1N ? 4.57

Which pIC50 value belongs to Nc1nc(-c2cccc(NC(=O)c3ccc[nH]3)c2)cn1C(=O)c1ccc[nH]1 ? 4.60
